Please go through the items and note down their binding signal.
- Subject of test: GST-Nv-NF-kB (Cys allele) (Nematostella vectensis, UniProt E5G601 2-411)
- Sequence: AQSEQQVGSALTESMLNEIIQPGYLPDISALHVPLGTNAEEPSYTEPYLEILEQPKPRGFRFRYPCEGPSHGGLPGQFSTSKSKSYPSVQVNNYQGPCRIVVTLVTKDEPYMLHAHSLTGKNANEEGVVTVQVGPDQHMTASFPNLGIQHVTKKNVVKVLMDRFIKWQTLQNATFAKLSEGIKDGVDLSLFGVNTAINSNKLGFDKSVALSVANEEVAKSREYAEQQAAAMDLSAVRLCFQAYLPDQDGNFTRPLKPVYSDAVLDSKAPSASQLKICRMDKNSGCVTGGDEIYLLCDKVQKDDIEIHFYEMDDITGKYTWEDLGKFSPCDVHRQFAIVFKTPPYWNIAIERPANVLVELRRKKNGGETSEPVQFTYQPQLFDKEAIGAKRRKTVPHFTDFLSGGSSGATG
- Experiment: protein-binding microarray (PBM); PBM: ~300 nM protein, 6 mM HEPES pH 7.8, 80 mM KCl, 0.5 mM EDTA, 0.5 mM EGTA, 6% glycerol, 35 ng/ul poly-dIdC, 1% milk, 1 h, room temperature; Ap Aiptasia and Nv Nematostella (sea anemones) / Co Capsaspora / Aq Amphimedon (sponge) / Dm Drosophila / Hu human; RHD is the Rel homology domain; high values mean tight binding
- Conditions: dsDNA, one strand shown

Solved entries (count: 5):
CCGATTAACATCAGGCGATCCCCTGATGTTAATCGGGTCTTGATTCGCTTGACGCTGCTG 4.17 z-score
CCGATTAACATCATATTTCCCCATGATGTTAATCGGGTCTTGATTCGCTTGACGCTGCTG 7.45 z-score
CCGATTAACATCAATGGGTTTTCTGATGTTAATCGGGTCTTGATTCGCTTGACGCTGCTG 1.21 z-score
CCGATTAACATCACCGCCCCACGTGATGTTAATCGGGTCTTGATTCGCTTGACGCTGCTG 1.73 z-score
CCGATTAACATCAAGGGTGGGAATGATGTTAATCGGGTCTTGATTCGCTTGACGCTGCTG 1.84 z-score

Below is a list of sequences. For each, state its recorded binding signal.
1. CCGATTAACATCAATCCCCACATTGATGTTAATCGGGTCTTGATTCGCTTGACGCTGCTG
2. CCGATTAACATCAGGGGGAGTCATGATGTTAATCGGGTCTTGATTCGCTTGACGCTGCTG

1: 4.03 z-score; 2: 4.38 z-score
